# melting point per entry

- CC(C)(C)OC(=O)N[C@H]1CCCOC/C=C\[C@@H]2C[C@@]2(C(=O)NS(=O)(=O)C2CC2)NC(=O)[C@@H]2C[C@@H](OC(=O)c3ccc(-c4ccccc4)cc3)CN2C1=O: 160 to 162 °C

Next molecule, please.
In one line, give reported melting point of the entry `CC(C)(C)OC(=O)N[C@H]1CCCOC/C=C\[C@@H]2C[C@@]2(C(=O)NS(=O)(=O)C2CC2)NC(=O)[C@@H]2C[C@@H](OC(=O)NC3CCCCC3)CN2C1=O` .
156 to 158 °C

###

Reported melting point values are given for each entry in this list.

- CC(C)(C)OC(=O)N[C@H]1CCCCC/C=C\[C@@H]2C[C@@]2(C(=O)NS(=O)(=O)C2CC2)NC(=O)[C@@H]2C[C@@H](OC(=O)c3ccc4c(c3)OCCO4)CN2C1=O: 199 to 201 °C
- COc1ccc(C(=O)O[C@@H]2C[C@H]3C(=O)N[C@]4(C(=O)NS(=O)(=O)C5CC5)C[C@H]4/C=C\COCCC[C@H](NC(=O)OC(C)(C)C)C(=O)N3C2)cc1: 145 to 147 °C

Then this compound:
For `CC(C)(C)OC(=O)N[C@H]1CCCOC/C=C\[C@@H]2C[C@@]2(C(=O)NS(=O)(=O)C2CC2)NC(=O)[C@@H]2C[C@@H](OC(=O)CC3CCCCC3)CN2C1=O` , write its melting point.
107 to 109 °C

###

molecular target: UniProt P00772
Sequence (P00772 27-266): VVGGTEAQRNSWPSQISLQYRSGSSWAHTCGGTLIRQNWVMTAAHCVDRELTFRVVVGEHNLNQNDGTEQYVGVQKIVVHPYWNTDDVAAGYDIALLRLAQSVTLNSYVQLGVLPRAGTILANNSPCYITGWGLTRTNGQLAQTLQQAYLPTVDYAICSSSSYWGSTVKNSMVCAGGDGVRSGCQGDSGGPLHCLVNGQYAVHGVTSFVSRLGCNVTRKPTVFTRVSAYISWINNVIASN
measurement name: IC50

Param request: IC50 | system UniProt P00772 | item `CC(C)(C)OC(=O)N[C@H]1CCCCC/C=C\[C@@H]2C[C@@]2(C(=O)NS(=O)(=O)C2CC2)NC(=O)[C@@H]2C[C@@H](OC(=O)c3ccc(C#N)cc3)CN2C1=O`
> 100 µM

###

Listed here: items and their measured melting point.

# count of solved cases: 3
- COc1ccc(C(=O)O[C@@H]2C[C@H]3C(=O)N[C@]4(C(=O)NS(=O)(=O)C5CC5)C[C@H]4/C=C\CCCCC[C@H](NC(=O)OC(C)(C)C)C(=O)N3C2)cc1 [Compound 20]: 151 to 153 °C
- CC(C)(C)OC(=O)N[C@H]1CCCCC/C=C\[C@@H]2C[C@@]2(C(=O)NS(=O)(=O)C2CC2)NC(=O)[C@@H]2C[C@@H](OC(=O)c3ccc4nccnc4c3)CN2C1=O [Compound 24]: 158 to 160 °C
- CC(C)(C)OC(=O)N[C@H]1COCCC/C=C\[C@@H]2C[C@@]2(C(=O)NS(=O)(=O)C2CC2)NC(=O)[C@@H]2C[C@@H](OC(=O)Nc3ccc(-c4ccccc4)cc3)CN2C1=O [Compound 39]: 170 to 173 °C

Read the next record carefully.
Give melting point for the following compound: CC(C)(C)OC(=O)N[C@H]1CCCCC/C=C\[C@@H]2C[C@@]2(C(=O)NS(=O)(=O)C2CC2)NC(=O)[C@@H]2C[C@@H](OC(=O)c3ccccc3)CN2C1=O [Compound 15]
140 to 142 °C

###

biological target: HCV NS3/4A protease complex, BMS strain (UniProt P27958, species not given/STRAIN_BMS); construct: said of H77 and J4L6S; fused on or other part: A three-lysine solubilising tail at the C-terminus of NS4A and a His tag (pET21b, Ni-NTA purification); test: FRET peptide assay to monitor HCV NS3/4A proteolytic activity (BMS strain); format: biochemical, Hepatitis C virus (genotype 1a); conditions: NS3/4A BMS strain; read-out: IC50 Range
Sequence (P27958 1027-1657, change not shown, one chain of several): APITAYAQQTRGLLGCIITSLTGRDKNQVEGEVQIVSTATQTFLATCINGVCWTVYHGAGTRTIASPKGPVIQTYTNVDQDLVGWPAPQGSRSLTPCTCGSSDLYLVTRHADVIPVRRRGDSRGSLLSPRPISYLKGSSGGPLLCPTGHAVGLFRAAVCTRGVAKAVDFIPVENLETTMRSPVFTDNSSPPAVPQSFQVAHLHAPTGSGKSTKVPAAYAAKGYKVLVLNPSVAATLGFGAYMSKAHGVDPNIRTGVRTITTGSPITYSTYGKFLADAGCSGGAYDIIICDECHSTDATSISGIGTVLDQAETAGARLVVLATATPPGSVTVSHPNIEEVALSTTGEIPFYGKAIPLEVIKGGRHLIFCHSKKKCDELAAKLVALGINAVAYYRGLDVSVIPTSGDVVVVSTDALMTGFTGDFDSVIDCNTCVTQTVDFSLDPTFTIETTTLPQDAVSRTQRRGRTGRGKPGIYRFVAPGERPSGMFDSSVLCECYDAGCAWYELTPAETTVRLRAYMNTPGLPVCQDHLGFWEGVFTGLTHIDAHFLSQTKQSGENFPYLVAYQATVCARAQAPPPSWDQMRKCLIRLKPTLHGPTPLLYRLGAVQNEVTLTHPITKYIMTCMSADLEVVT
measurement name: IC50

- CC(C)(C)OC(=O)N[C@H]1CN(C2CC2)CCC/C=C\[C@@H]2C[C@@]2(C(=O)NS(=O)(=O)C2CC2)NC(=O)[C@@H]2C[C@@H](OC(=O)N3Cc4cccc(F)c4C3)CN2C1=O: < 100 nM
- CC(C)(C)OC(=O)N[C@H]1CCCOC/C=C\[C@@H]2C[C@@]2(C(=O)NS(=O)(=O)C2CC2)NC(=O)[C@@H]2C[C@@H](OC(=O)C3CCCCC3)CN2C1=O: < 100 nM
- CC(C)(C)OC(=O)N[C@H]1CCCCC/C=C\[C@@H]2C[C@@]2(C(=O)NS(=O)(=O)C2CC2)NC(=O)[C@@H]2C[C@@H](OC(=O)c3cccc(Cl)c3)CN2C1=O: < 100 nM
- CC(C)(C)OC(=O)N[C@H]1CCCCC/C=C\[C@@H]2C[C@@]2(C(=O)O)NC(=O)[C@@H]2C[C@@H](OC(=O)Nc3ccccc3-c3ccccc3)CN2C1=O: > 1000 nM

Now take the following molecule into account.
Please supply the value of reported IC50 for the item `CC(C)(C)OC(=O)N[C@H]1COCCC/C=C\[C@@H]2C[C@@]2(C(=O)NS(=O)(=O)C2CC2)NC(=O)[C@@H]2C[C@@H](OC(=O)c3cccc(Oc4ccccc4)c3)CN2C1=O`
< 100 nM
